- Test system: MALME-3M melanoma
- protocol_details: NCI-60 one-dose screen, 48 h (100 = growth as untreated, 0 = no growth, -100 = all killed)
- condition_context: 10 µM unless noted
The panel holds about 83,000 compounds, 20% with a hit somewhere; the sample as a whole holds those more often.
measure_name: growth (%)

INSERT INTO measurements (compound, observed_measurement) VALUES
  ('COc1cc(OC)c(/C=C/C(=O)c2c(N)cc(OC)cc2OC)c(OC)c1', 63.6),
  ('N#CCCc1c[nH]c2ccccc12', 98.9),
  ('CCN(CC)CCSC(=O)C(O)(c1ccccc1)C1CCCC1 (configuration not stated)', 116),
  ('CCN(CC)c1ccc2cc(C(Nc3ccc(C)cc3)c3nnnn3C(C)(C)C)c(=O)oc2c1 (configuration not stated)', 105),
  ('O=S(=O)(NCCNc1nccc(-c2c(-c3cccc(F)c3)nc3occn23)n1)c1ccc(C(F)(F)F)cc1', 86.2),
  ('CCN(CC)c1ccc2cc(NC(=O)OCCNC(=O)CCNC(=O)[C@H](CC(C)C)NC(=O)C(C)(C)NC(=O)C(C)(C)NC(=O)[C@H](CC(C)C)NC(=O)CCNC(=O)C(C)(C)NC(=O)[C@H](CC(C)C)NC(=O)CCNC(=O)[C@@](C)(CC)NC(=O)[C@H](C)NC(=O)CCNC(=O)C(C)(C)NC(=O)[C@H](C)NC(=O)[C@@H]3CCCN3C(=O)[C@@](C)(CC)NC(=O)[C@H](Cc3ccccc3)NC(=O)C3CCCN3C(=O)C(C)(C)NC(=O)C3CCCN3C(=O)C(C)(C)NC(C)=O)c(=O)oc2c1 (some centres not stated)', -80.4),
  ('O=C(Nc1ccc(Oc2ccc(F)cc2)c(Cl)c1)c1cnccn1', 70.1);

----------
- Test system: A549/ATCC NSCLC
- protocol_details: NCI-60 one-dose screen, 48 h (100 = growth as untreated, 0 = no growth, -100 = all killed)
- condition_context: 10 µM unless noted
This is part of a sample that, as a whole, favours compounds with a hit. Of some 83,000 tested, about 20% had one in any assay. The source made the active and inactive calls. How the source made its calls: active means growth percent below 10; inactive means the rest.
// values below are reported growth
measure_name: growth

INSERT INTO results (molecule, observed_measurement) VALUES
  ('CC(C)C1=NOC(=O)C1=Cc1cn(-c2ccco2)nc1-c1ccccc1', '99.2% (inactive)'),
  ('COCc1nc2ccccc2[nH]1', '100% (inactive)'),
  ('O=C(N/N=C/c1c(Cl)cccc1Cl)c1cccc(Nc2ccnc(C(F)(F)F)c2)c1', '107% (inactive)'),
  ('CCOc1ccccc1/C=N\Nc1ccc(S(=O)(=O)c2ccc(N/N=C/c3ccccc3OCC)cc2)cc1', '96.7% (inactive)'),
  ('CCCCNC(=O)NS(=O)(=O)Cc1ccccc1', '101% (inactive)'),
  ('O=C(CSc1nc2ccc([N+](=O)[O-])cc2[nH]1)Nc1cccc(Cl)c1', '28.9% (inactive)'),
  ('c1cc2ccc3cc2cc1CNCCN1CCNCc2ccc4ccc(cc4c2)CNCCN(CCNC3)CCNCc2ccc3ccc(cc3c2)CNCC1', '2.2% (active)'),
  ('O=C1NC(=O)c2cc([N+](=O)[O-])cc3cccc1c23', '89.7% (inactive)'),
  ('CCOC(=O)COc1c(C)cc(SSc2cc(C)c(OCC(=O)OCC)c(C)c2)cc1C', '80.2% (inactive)'),
  ('Cc1ccc(NC(=O)N[C@@H](Cc2cc(F)cc(F)c2)C(=O)N[C@@H]2C(=O)N3CCC[C@H]3C(=O)N3CCCC[C@H]3C(=O)N[C@@H](C)C(=O)N3C[C@H](C)C[C@H]3C(=O)O[C@H]2C)cc1', '23.1% (inactive)'),
  ('Cc1cc(NN=C(c2ccc(O)cc2)c2ccc(O)cc2)c([N+](=O)[O-])cc1[N+](=O)[O-]', '11.8% (inactive)'),
  ('COc1ccc2c(c1)C(C)Cc1c(ncnc1-n1cnc3ccccc31)N2C (centres undefined)', '21.4% (inactive)'),
  ('CN(C)c1cc(NN=C(c2ccc(O)cc2)c2ccc(O)cc2)c([N+](=O)[O-])cc1[N+](=O)[O-]', '13.2% (inactive)'),
  ('CCN(CC)c1ccc(/C=C/c2ccc3cc(C)ccc3[n+]2CC)cc1', '8.77% (active)'),
  ('CN(C)C(=S)Sc1ccc([N+](=O)[O-])cc1[N+](=O)[O-]', '43.6% (inactive)'),
  ('O=C(CSc1nccc(Nc2ccc(S(=O)(=O)Nc3ccccn3)cc2)n1)c1ccc(Cl)cc1', '105% (inactive)'),
  ('CCOC(=O)CCC[P+](c1ccccc1)(c1ccccc1)c1ccccc1', '90.7% (inactive)'),
  ('COc1ccc(NC(=S)NNc2ccc(-c3ccc(OC)c(OC)c3)nn2)cc1', '110% (inactive)'),
  ('O=C(Nc1ccc(Oc2ccc(F)cc2)c(Cl)c1)c1cccnn1', '65.5% (inactive)'),
  ('C#CC(OC(=O)N(C)C)(c1ccccc1)c1ccc(F)cc1 (centres undefined)', '75% (inactive)'),
  ('Nc1cccc2c1C(=O)c1cccc(NC(=O)c3ccccc3)c1C2=O', '28.6% (inactive)'),
  ('c1ccc2c(c1)CN(CCCN1CCOCC1)C2', '96.8% (inactive)'),
  ('CCOc1cc(/C=N\NC(=O)N/N=C/c2ccc(O)c(OCC)c2)ccc1O', '59.4% (inactive)'),
  ('CCN(CC)c1ccc2cc(NC(=O)OCCNC(=O)CCNC(=O)[C@H](CC(C)C)NC(=O)C(C)(C)NC(=O)C(C)(C)NC(=O)[C@H](CC(C)C)NC(=O)CCNC(=O)C(C)(C)NC(=O)[C@H](CC(C)C)NC(=O)CCNC(=O)[C@@](C)(CC)NC(=O)[C@H](C)NC(=O)CCNC(=O)C(C)(C)NC(=O)[C@H](C)NC(=O)[C@@H]3CCCN3C(=O)[C@@](C)(CC)NC(=O)[C@H](Cc3ccccc3)NC(=O)C3CCCN3C(=O)C(C)(C)NC(=O)C3CCCN3C(=O)C(C)(C)NC(C)=O)c(=O)oc2c1 (some centres undefined)', '-76% (active)'),
  ('O=C(CCNCc1ccccc1)c1ccccc1', '101% (inactive)'),
  ('CC[C@@](C)(NC(=O)[C@H](C)NC(=O)CCNC(=O)C(C)(C)NC(=O)[C@H](C)NC(=O)[C@@H]1CCCN1C(=O)[C@@](C)(CC)NC(=O)[C@H](Cc1ccccc1)NC(=O)C1CCCN1C(=O)C(C)(C)NC(=O)C1CCCN1C(=O)C(C)(C)NC(C)=O)C(=O)NCCC(=O)N[C@@H](CC(C)C)C(=O)NC(C)(C)C(=O)NCCC(=O)N[C@@H](CC(C)C)C(=O)NC(C)(C)C(=O)NC(C)(C)C(=O)N[C@@H](CC(C)C)C(=O)NCCC(=O)NCO (some centres undefined)', '-81.3% (active)'),
  ('O=C(O)c1cn(C2CC2)c2cc(N3CCN(Cc4cc(Cl)ccc4O)CC3)c(F)cc2c1=O', '30.4% (inactive)'),
  ('COc1cccc(-c2[nH]c(=S)ncc2C(=O)c2ccccc2)c1', '88.4% (inactive)'),
  ('O=C(CCN1CCCCC1)c1ccc2ccccc2c1', '102% (inactive)'),
  ('Nc1nc(Nc2ccccc2)c2ncn(Cc3ccc4c(c3)OCO4)c2n1', '42% (inactive)'),
  ('Nc1nc(Cl)c2ncn(Cc3cc4c(cc3I)OCO4)c2n1', '45.6% (inactive)'),
  ('COc1cc(OC)c(/C=C/C(=O)c2c(N)cc(OC)cc2OC)c(OC)c1', '27.4% (inactive)'),
  ('CCOC(=O)C(c1ccccc1)N1C(=O)c2ccccc2C1=O (centres undefined)', '97.6% (inactive)'),
  ('NC(=S)Cc1ccccc1', '99.7% (inactive)');

----------
- Tested on: M14 melanoma
- protocol_details: NCI-60 one-dose screen, 48 h
- condition_context: 10 µM unless noted
This is part of a sample that, as a whole, favours compounds with a hit. Of some 83,000 tested, about 20% had one in any assay. Active and inactive are the calls of the source. The calls were made as follows: active = growth percent below 10; inactive = the rest.
Labels: active, inactive

INSERT INTO measurements (compound, label_value) VALUES
  ('O=C(Nc1ccc(Cl)c(C(F)(F)F)c1)Nc1ccc(-c2cccnc2)cc1N1CCC(CO)CC1', 'inactive'),
  ('CC(C)=CC/C=C(/C)[C@H]1CC[C@]2(C)[C@@H]1CC[C@@H]1[C@@]3(C)CC/C(=N/O)C(C)(C)[C@@H]3CC[C@]12C', 'inactive'),
  ('Cc1ccc(NC(=O)N[C@@H](Cc2cc(F)cc(F)c2)C(=O)N[C@@H]2C(=O)N3CCC[C@H]3C(=O)N3CCCC[C@H]3C(=O)N[C@@H](C)C(=O)N3C[C@H](C)C[C@H]3C(=O)O[C@H]2C)cc1', 'inactive'),
  ('C[C@]12CCc3c(ccc4cc(O)ccc34)[C@@H]1CC[C@H]2O', 'inactive'),
  ('C#CCNC(=O)CC[C@]1(C)[C@H]2CC[C@@H]3[C@@H]([C@@](C)(O)CCC=C(C)C)CC[C@@]3(C)[C@]2(C)CC[C@H]1C(=C)C', 'inactive'),
  ('CCOC(=O)n1cc(C2=C(c3ccc(OC)c(OC)c3)COC2=O)c2ccccc21', 'inactive'),
  ('CCOC(=O)c1cc(C#N)n2ncc3ccccc3c12', 'inactive'),
  ('N#C/C(C(=O)c1ccccc1)=C1/C(=O)Nc2ccccc21', 'inactive'),
  ('C[n+]1c(-c2ccccc2)c2cc(N)ccc2c2ccccc21', 'inactive'),
  ('C[N+](C)(C)c1ncnc2[n-]cnc12', 'inactive'),
  ('COCCCNc1nc(NC(=O)c2cc(OC)cc(OC)c2)cc(-c2cccnc2)n1', 'inactive'),
  ('Cc1cc(C)c(S(=O)(=O)/N=c2/n(-c3ccccc3)nc3n2CCN3C2=NCCN2)c(C)c1', 'inactive'),
  ('C#C[C@]1(O)CC[C@H]2[C@@H]3CC=C4c5nc(Nc6ccccc6[N+](=O)[O-])sc5CC[C@]4(C)[C@H]3CC[C@@]21C', 'active'),
  ('C1=C[C@H]2O[C@@H]1c1ccc3[nH]ccc3c12', 'inactive'),
  ('CCCCCCCCCCCCCCNC(=O)Nc1ccc(Cl)c(Cl)c1', 'inactive'),
  ('O=S(=O)(c1ccc(N/N=C\c2ccccc2Cl)cc1)c1ccc(N/N=C/c2ccccc2Cl)cc1', 'inactive'),
  ('O=C(Nc1cc(-c2cccnc2)nc(NCCCN2CCOCC2)n1)c1cc(Br)cc(C(F)(F)F)c1', 'active'),
  ('Nc1cc(Cl)cc2cccnc12', 'inactive'),
  ('COc1ccc2nc3cc(Cl)ccc3c(Nc3ccc(O)cc3)c2c1', 'inactive');
